Every entry's value here was drawn from paper PMC6218115.

# targetOfAssay: alpha-1-acid glycoprotein (AGP) (Homo sapiens, UniProt P02763)
# Sequence (P02763 19-201): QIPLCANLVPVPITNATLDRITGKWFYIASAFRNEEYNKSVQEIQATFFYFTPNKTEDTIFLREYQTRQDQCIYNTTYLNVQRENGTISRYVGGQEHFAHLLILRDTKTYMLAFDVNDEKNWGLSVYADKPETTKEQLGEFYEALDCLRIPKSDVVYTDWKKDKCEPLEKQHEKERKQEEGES
# assayNotes: TRANSIL XL AGP bead binding with liquid scintillation counting
Non-standard residues stand in square brackets, D forms with d. No end group written: not given here.
Parameter Kd: see the listing below.

[
  {
    "binder": "cyclo([dR][dK][dR][dI][dR][dL][dV][dT][dK][dK][dK][dR][dR]) (also: 3H-labelled tracer) [cANK6r]",
    "Kd [nM]": 280
  },
  {
    "binder": "[dR][dK][dR][dI][dR][dL][dV][dT][dK][dK][dK][dR][dR][dK][dR][dI][dR][dL][dV][dT][dK][dK][dK][dR]-NH2 (also: 3H-labelled tracer) [tANK6]",
    "Kd [nM]": 60
  },
  {
    "binder": "[dR][dK][dR][dI][dR][dL][dV][dT][dK][dK][dK][dR]-NH2 (also: 3H-labelled tracer) [ANK6]",
    "Kd [nM]": 290
  }
]
